Conditions: rat, in vivo, pH 7.4
Give measured Pc for each item. Keep answers brief.

Enquiry: Consider the molecule `COc1ccc2c(c1)c(CC(=O)O)c(C)n2C(=O)c1ccc(Cl)cc1` and give its measured Pc.
Return: 766 nm/s

Enquiry: Try CC(C(=O)O)c1ccc(-c2ccccc2)c(F)c1 (centres unmarked) next.
Return: 2300 nm/s

Enquiry: Try Cn1nnc2c(C(N)=O)ncn2c1=O [Temozolamide] next.
Return: 163 nm/s

Enquiry: Try CC(=O)CC(c1ccccc1)c1c(O)c2ccccc2oc1=O (centres unmarked) next.
Return: 706 nm/s

Enquiry: Try `O=C1NC(=O)C(c2ccccc2)(c2ccccc2)N1` next.
Return: 2630 nm/s

====

Conditions: rat, in vivo, pH 7.4
Binary label based on PoS with cut-off 0.09 mL/s/g: below gives TRUE, not below gives FALSE.

Enquiry: Would you kindly verify if PoS of CCCC(C)C1(CC)C(=O)NC(=O)NC1=O (stereo not shown) is strictly less than 0.09 mL/s/g?
Return: TRUE

Enquiry: Try Cc1c(I)c(=O)n(-c2ccccc2)n1C [Iodoantipyrine] next.
Return: FALSE

Enquiry: Try `OCC(O)CO` next.
Return: TRUE

Enquiry: Try CC(C(=O)O)c1ccc(-c2ccccc2)c(F)c1 (stereo not shown) next.
Return: FALSE

Enquiry: Try `OC[C@@H](O)[C@@H](O)CO` next.
Return: TRUE

Enquiry: Try Cn1nnc2c(C(N)=O)ncn2c1=O [Temozolamide] next.
Return: TRUE

Enquiry: Try `O=C(O)c1cc(=O)c2ccccc2[nH]1` next.
Return: FALSE

Enquiry: Try `CCCC(CCC)C(=O)O` next.
Return: FALSE

Enquiry: Try CC(=O)CC(c1ccccc1)c1c(O)c2ccccc2oc1=O (stereo not shown) next.
Return: FALSE

Enquiry: Try `CCC1(c2ccccc2)C(=O)NC(=O)NC1=O` next.
Return: TRUE

Enquiry: Try `CN(C)CCCN1c2ccccc2Sc2ccc(Cl)cc21` next.
Return: FALSE

Enquiry: Try `OC[C@H]1O[C@H](OC[C@H]2O[C@H](O[C@]3(CO)O[C@H](CO)[C@@H](O)[C@@H]3O)[C@H](O)[C@@H](O)[C@@H]2O)[C@H](O)[C@@H](O)[C@H]1O` next.
Return: TRUE

Enquiry: Try `CCC1(CC)C(=O)NC(=O)NC1=O` next.
Return: TRUE

Enquiry: Try `OC[C@@H](O)[C@@H](O)[C@H](O)[C@H](O)CO` next.
Return: TRUE

Enquiry: Try `O=C(O)c1cccnc1C(=O)O` next.
Return: TRUE

Enquiry: Try `O=C(O)CCCc1ccc(N(CCCl)CCCl)cc1` next.
Return: FALSE

Enquiry: Try `OCCCCO` next.
Return: TRUE

Enquiry: Try `Fc1ccc([C@@H]2CCNC[C@H]2COc2ccc3c(c2)OCO3)cc1` next.
Return: FALSE

Enquiry: Try `COC(=O)[C@H]1[C@H]2C[C@@H]3c4[nH]c5cc(OC)ccc5c4CCN3C[C@H]2C[C@@H](OC(=O)c2cc(OC)c(OC)c(OC)c2)[C@@H]1OC` next.
Return: FALSE

Enquiry: Try `OCCCCCCO` next.
Return: TRUE

Enquiry: Try `O=C1NC(=O)C(c2ccccc2)(c2ccccc2)N1` next.
Return: TRUE

====

Conditions: rat, in vivo, po
Give measured Po for each item. Keep answers brief.
Give the quantity in cm/s, number only.

Enquiry: Consider the compound `CC(C)(C)OC(=O)CCCc1ccc(N(CCCl)CCCl)cc1` and give its measured Po.
Return: 0.32

Enquiry: Try `O=C[C@@H](O)[C@H](O)[C@@H](O)[C@@H](O)CO` next.
Return: 1.25e-07

Enquiry: Try `OCCCO` next.
Return: 5.16e-05

Enquiry: Try `OCCO` next.
Return: 5.69e-06

Enquiry: Try `O` next.
Return: 0.000287

Enquiry: Try `CCCCO` next.
Return: 0.00127

====

Test: In situ rat brain perfusion (brain uptake Kin, extraction E, BBB PS)
Details: S assumed 100 cm^2/g
Measure Name: Pc (×10⁻⁶ cm/s)
Give the quantity in ×10⁻⁶ cm/s, number only.

Enquiry: Consider the molecule CCCCNS(=O)(=O)c1ccccc1 [N-butyl-benzene sulfonamide] and give its measured Pc.
Return: 3800

Enquiry: Try `O=C(CO)[C@@H](O)[C@H](O)[C@H](O)CO` next.
Return: 0.0574

Enquiry: Try `CO` next.
Return: 278

Enquiry: Try O=C1Nc2ccc(Cl)cc2C(c2ccccc2Cl)=NC1O (stereo not shown) next.
Return: 3000

Enquiry: Try CC(C)NC(C)Cc1ccc(I)cc1 (stereo not shown) next.
Return: 2910

Enquiry: Try `Nc1ccccc1C(=O)O` next.
Return: 11.9

Enquiry: Try `CNC(N)=O` next.
Return: 1.91

Enquiry: Try `CC(=O)N[C@@H](CS)C(=O)O` next.
Return: 0.0182

Enquiry: Try CC(O)CO (stereo not shown) next.
Return: 21.6

Enquiry: Try NC(=O)CI [Iodoacetamide] next.
Return: 91.7

====

Give measured Maximal flow—90% extraction, PcS/2.3 for each item. Keep answers brief.
Conditions: pH 7.4
Give the quantity in mL/s/g, number only.

Enquiry: Consider the compound O=C1Nc2ccc(Cl)cc2C(c2ccccc2Cl)=NC1O (stereo not shown) and give its measured Maximal flow—90% extraction, PcS/2.3.
Return: 0.13

Enquiry: Try CC(C)NC(C)Cc1ccc(I)cc1 (stereo not shown) next.
Return: 0.13

Enquiry: Try `CC(C)(C)OC(=O)CCCc1ccc(N(CCCl)CCCl)cc1` next.
Return: 14.0

Enquiry: Try CCCCNS(=O)(=O)c1ccccc1 [N-butyl-benzene sulfonamide] next.
Return: 0.17

====

Experiment: In situ rat brain perfusion (brain uptake Kin, extraction E, BBB PS)
Settings: Po in cm/s
Measure Name: Log Po
Output: the number by itself.

Enquiry: Consider the compound CC(O)CO (centres unmarked) [1,2-Propanediol] and give its measured Log Po.
Return: −4.67

Enquiry: Try Nc1ccccc1C(=O)O [Anthranilic acid] next.
Return: −2.44

Enquiry: Try CCCCNS(=O)(=O)c1ccccc1 [N-butyl-benzene sulfonamide] next.
Return: −2.42

Enquiry: Try CC(C)NC(C)Cc1ccc(I)cc1 (centres unmarked) [Iofetamine, isopropyl-iodoamphetamine] next.
Return: −1.02

Enquiry: Try CNC(N)=O [Methylurea] next.
Return: −5.72

====

Conditions: rat, in vivo, pH 7.4
Give measured Pc for each item. Keep answers brief.
Give the quantity in ×10⁻⁶ cm/s, number only.

Enquiry: Consider the compound CCC1(CC)C(=O)NC(=O)NC1=O [Barbital] and give its measured Pc.
Return: 38.1

Enquiry: Try OCCCCCCO [1,6-Hexanediol] next.
Return: 379

Enquiry: Try CCCC(CCC)C(=O)O [Valproic acid] next.
Return: 91.9

Enquiry: Try CN(C)CCCN1c2ccccc2Sc2ccc(Cl)cc21 [Chlorpromazine] next.
Return: 3090

Enquiry: Try CCCC(C)C1(CC)C(=O)NC(=O)NC1=O (centres unmarked) [Pentobarbital] next.
Return: 450

Enquiry: Try OC[C@H]1O[C@H](OC[C@H]2O[C@H](O[C@]3(CO)O[C@H](CO)[C@@H](O)[C@@H]3O)[C@H](O)[C@@H](O)[C@@H]2O)[C@H](O)[C@@H](O)[C@H]1O [Raffinose] next.
Return: 0.0095

Enquiry: Try O=C(O)c1cccnc1C(=O)O [Quinolinic acid] next.
Return: 0.017

Enquiry: Try O=C(O)CCCc1ccc(N(CCCl)CCCl)cc1 [Chlorambucil] next.
Return: 287

====

Assay: Neutral fraction at pH 7.4 calculated from pKa
Assay type: physicochemical
Settings: neutral fraction at perfusion fluid pH 7.40, calculated from pKa
Measure Name: fn (%)
# answer = value followed by unit

Enquiry: Consider the compound O=C1Nc2ccc(Cl)cc2C(c2ccccc2Cl)=NC1O (stereo not shown) and give its measured fn (%).
Return: 100%

Enquiry: Try `Cn1c(=O)c2[nH]cnc2n(C)c1=O` next.
Return: 100%

Enquiry: Try `CCCCCCO` next.
Return: 100%

Enquiry: Try `CN(C)CCCN1c2ccccc2Sc2ccc(Cl)cc21` next.
Return: 1.42%

Enquiry: Try `Cc1c(N(C)C)c(=O)n(-c2ccccc2)n1C` next.
Return: 99.0%

Enquiry: Try CNCCC(Oc1ccc(C(F)(F)F)cc1)c1ccccc1 (stereo not shown) next.
Return: 0.27%

Enquiry: Try `CCCO` next.
Return: 100%

Enquiry: Try O=C1Nc2ccc(Cl)cc2C(c2ccccc2)=NC1O (stereo not shown) next.
Return: 100%

Enquiry: Try Nc1c(O)cccc1C(=O)O [3-hydroxy-anthranilic acid] next.
Return: 0.15%

Enquiry: Try CC(C)NCC(O)COc1cccc2ccccc12 (stereo not shown) next.
Return: 0.74%

Enquiry: Try CC(C(=O)O)c1ccc(-c2ccccc2)c(F)c1 (stereo not shown) next.
Return: 0.06%

Enquiry: Try `CO` next.
Return: 100%

Enquiry: Try `O=C[C@@H](O)[C@H](O)[C@@H](O)[C@@H](O)CO` next.
Return: 100%

Enquiry: Try `OCCCO` next.
Return: 100%

Enquiry: Try CN(C)CCOC(c1ccccc1)c1ccccc1 [Diphenhydramine] next.
Return: 1.96%

Enquiry: Try `Cn1c(=O)c2c(ncn2C)n(C)c1=O` next.
Return: 100%

Enquiry: Try `COc1ccc2c(c1)c(CC(=O)O)c(C)n2C(=O)c1ccc(Cl)cc1` next.
Return: 0.05%

Enquiry: Try Cc1c(I)c(=O)n(-c2ccccc2)n1C [Iodoantipyrine] next.
Return: 100%

Enquiry: Try `COc1ccc2cc([C@H](C)C(=O)O)ccc2c1` next.
Return: 0.05%

Enquiry: Try `CCC1(c2ccccc2)C(=O)NC(=O)NC1=O` next.
Return: 47.7%

Enquiry: Try `Cc1nnc2n1-c1ccc(Cl)cc1C(c1ccccc1)=NC2` next.
Return: 100%

Enquiry: Try `COC(=O)[C@H]1[C@H]2C[C@@H]3c4[nH]c5cc(OC)ccc5c4CCN3C[C@H]2C[C@@H](OC(=O)c2cc(OC)c(OC)c(OC)c2)[C@@H]1OC` next.
Return: 83.37%

Enquiry: Try `NC(N)=O` next.
Return: 100%

Enquiry: Try CC(C)Cc1ccc(C(C)C(=O)O)cc1 (stereo not shown) next.
Return: 0.11%

Enquiry: Try `OC[C@H]1O[C@@](CO)(O[C@H]2O[C@H](CO)[C@@H](O)[C@H](O)[C@H]2O)[C@@H](O)[C@@H]1O` next.
Return: 100%

Enquiry: Try `CC(=O)[C@H]1CC[C@H]2[C@@H]3CCC4=CC(=O)CC[C@]4(C)[C@H]3CC[C@]12C` next.
Return: 100%

Enquiry: Try `OC[C@@H](O)[C@@H](O)[C@H](O)[C@H](O)CO` next.
Return: 100%

Enquiry: Try CC(O)CO (stereo not shown) next.
Return: 100%

Enquiry: Try CCCCNS(=O)(=O)c1ccccc1 [N-butyl-benzene sulfonamide] next.
Return: 100%

Enquiry: Try `CN1C(=O)CN=C(c2ccccc2F)c2cc([N+](=O)[O-])ccc21` next.
Return: 100%

Enquiry: Try `OC[C@H]1O[C@H](OC[C@H]2O[C@H](O[C@]3(CO)O[C@H](CO)[C@@H](O)[C@@H]3O)[C@H](O)[C@@H](O)[C@@H]2O)[C@H](O)[C@@H](O)[C@H]1O` next.
Return: 100%
